target: PaClpP1 (Pseudomonas aeruginosa); test: fluorogenic peptidase assay, Suc-LY-AMC
Sequence (Q9I2U1 whole entry): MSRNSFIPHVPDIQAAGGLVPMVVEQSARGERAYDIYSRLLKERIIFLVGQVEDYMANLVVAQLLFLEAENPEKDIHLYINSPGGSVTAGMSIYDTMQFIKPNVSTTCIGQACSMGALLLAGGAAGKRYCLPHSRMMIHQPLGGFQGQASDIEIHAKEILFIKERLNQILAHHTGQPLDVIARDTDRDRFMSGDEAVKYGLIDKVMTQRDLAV
pIC50: −log10 of the molar value.
measured property: pIC50

# return recorded pIC50 for entry `COc1cc2c(Oc3ccc4[nH]c(C)cc4c3F)ncnc2cc1OCCCN1CCCC1`
< 4.00

* * *

pIC50 tested on MtbClpP1P2 (Mycobacterium tuberculosis, UniProt P9WPC5): recorded values
Sequence (P9WPC5 whole entry, looked up): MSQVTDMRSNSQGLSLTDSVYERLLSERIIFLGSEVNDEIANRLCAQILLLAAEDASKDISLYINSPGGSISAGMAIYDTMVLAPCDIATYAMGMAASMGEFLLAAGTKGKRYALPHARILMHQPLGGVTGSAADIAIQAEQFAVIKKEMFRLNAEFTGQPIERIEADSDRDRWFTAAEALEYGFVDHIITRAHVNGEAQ
In plain terms, pIC50 is the concentration in mol/L turned into minus its base-10 logarithm.

1. Cc1cc2c(F)c(Oc3ncnn4cc(OC[C@@H](C)O)c(C)c34)ccc2[nH]1 [brivanib] : 4.90

Now for the compound whose pIC50 we want.
// output pIC50; input COc1cc2c(Oc3ccc4[nH]c(C)cc4c3F)ncnc2cc1OCCCN1CCCC1 [cediranib] ; system MtbClpP1P2 (Mycobacterium tuberculosis, UniProt P9WPC5)
5.47
